Test system: IPOHE (Morningglory, Ivyleaf)
PROTOCOL_NOTES: Postemergence herbicidal evaluation
Assay type: in vivo, Ipomoea hederacea
STUDY_CONDITIONS: postemergence, rate 0.0156 kg/ha

{"COMPOUND": "CCOC(=O)CN1C(=O)C(C(=O)OC(C)(C)C)SC1=Nc1cc(-n2c(=O)cc(C(F)(F)F)n(C)c2=O)c(F)cc1Cl (centres unmarked) [Compound 167]", "EXPERIMENTAL_TARGET": "IPOHE (Morningglory, Ivyleaf)", "Herbicidal rating IPOHE": 9.0}
{"COMPOUND": "CCOC(=O)CN1C(=O)C(OC)SC1=Nc1cc(-n2c(=O)cc(C(F)(F)F)n(C)c2=O)c(F)cc1Cl (centres unmarked) [Compound 160]", "EXPERIMENTAL_TARGET": "IPOHE (Morningglory, Ivyleaf)", "Herbicidal rating IPOHE": 9.0}
{"COMPOUND": "CCOC(=O)CN1C(=O)C(Br)SC1=Nc1cc(-n2c(=O)cc(C(F)(F)F)n(C)c2=O)c(F)cc1Cl (centres unmarked) [Compound 153]", "EXPERIMENTAL_TARGET": "IPOHE (Morningglory, Ivyleaf)", "Herbicidal rating IPOHE": 4.0}
{"COMPOUND": "CN1C(=O)C(CC(=O)NS(=O)(=O)c2ccccc2)SC1=Nc1cc(-n2c(=O)cc(C(F)(F)F)n(C)c2=O)c(F)cc1Cl (centres unmarked) [Compound 102]", "EXPERIMENTAL_TARGET": "IPOHE (Morningglory, Ivyleaf)", "Herbicidal rating IPOHE": 9.0}
{"COMPOUND": "Cn1c(C(F)(F)F)cc(=O)n(-c2cc(N=C3SCC(=O)N3Cc3cccc(Cl)c3)c(Cl)cc2F)c1=O [Compound 136]", "EXPERIMENTAL_TARGET": "IPOHE (Morningglory, Ivyleaf)", "Herbicidal rating IPOHE": 9.0}
{"COMPOUND": "CCOC(=O)CN1C(=O)C(CC(=O)O)SC1=Nc1cc(N2C(=O)CC(C(F)(F)F)CC2=O)c(F)cc1Cl (centres unmarked) [Compound 170]", "EXPERIMENTAL_TARGET": "IPOHE (Morningglory, Ivyleaf)", "Herbicidal rating IPOHE": 9.0}
{"COMPOUND": "CN(C)c1ccc(CN2C(=O)CSC2=Nc2cc(-n3c(=O)cc(C(F)(F)F)n(C)c3=O)c(F)cc2Cl)cc1 [Compound 138]", "EXPERIMENTAL_TARGET": "IPOHE (Morningglory, Ivyleaf)", "Herbicidal rating IPOHE": 9.0}
{"COMPOUND": "Cn1c(C(F)(F)F)cc(=O)n(-c2cc(N=C3SCC(=O)N3Cc3cccnc3)c(Cl)cc2F)c1=O [Compound 132]", "EXPERIMENTAL_TARGET": "IPOHE (Morningglory, Ivyleaf)", "Herbicidal rating IPOHE": 6.0}

###

Tested on: TRZAWR (Wheat, Winter, cv Riband)
PROTOCOL_NOTES: Preemergence herbicidal evaluation
Type: in vivo, Triticum aestivum
STUDY_CONDITIONS: rate 0.1250 kg/ha; rated 4-5 weeks after treatment
From the text: Results of herbicide evaluation are expressed on a rating scale (0-9). The scale is based upon a visual observation of plant stand, vigor, malformation, size, chlorosis and overall plant appearance as compared with a control. […] The compounds evaluated are reported by compound number given in Example 37.
Here, each record is paired with measured Preemergence herbicidal rating TRZAWR data.
READOUT_TYPE: Preemergence herbicidal rating TRZAWR

{"COMPOUND": "CCOC(=O)CN1CC(=O)N(CC(=O)OCC)C1=Nc1cc(-n2c(=O)cc(C(F)(F)F)n(C)c2=O)c(F)cc1Cl [Compound 34]", "EXPERIMENTAL_TARGET": "TRZAWR (Wheat, Winter, cv Riband)", "READOUT_TYPE": "Preemergence herbicidal rating TRZAWR", "RESULT": 1.0}
{"COMPOUND": "CCOC(=O)CN1C(=O)C(Cc2ccccc2OC)SC1=Nc1cc(-n2c(=O)cc(C(F)(F)F)n(C)c2=O)c(F)cc1Cl (centres unmarked) [Compound 37]", "EXPERIMENTAL_TARGET": "TRZAWR (Wheat, Winter, cv Riband)", "READOUT_TYPE": "Preemergence herbicidal rating TRZAWR", "RESULT": 0.0}
{"COMPOUND": "C=CCN1C(=O)C(CC(=O)OC)SC1=Nc1cc(-n2c(=O)cc(C(F)(F)F)n(C)c2=O)c(F)cc1Cl (centres unmarked) [Compound 64]", "EXPERIMENTAL_TARGET": "TRZAWR (Wheat, Winter, cv Riband)", "READOUT_TYPE": "Preemergence herbicidal rating TRZAWR", "RESULT": 1.0}
{"COMPOUND": "CC(C)S(=O)(=O)NC(=O)CC1SC(=Nc2cc(-n3c(=O)cc(C(F)(F)F)n(C)c3=O)c(F)cc2Cl)N(C)C1=O (centres unmarked) [Compound 119]", "EXPERIMENTAL_TARGET": "TRZAWR (Wheat, Winter, cv Riband)", "READOUT_TYPE": "Preemergence herbicidal rating TRZAWR", "RESULT": 0.0}
{"COMPOUND": "C[C@@H](C(=O)O)N1C(=O)CS/C1=N/c1cc(-n2c(=O)cc(C(F)(F)F)n(C)c2=O)c(F)cc1Cl [Compound 51]", "EXPERIMENTAL_TARGET": "TRZAWR (Wheat, Winter, cv Riband)", "READOUT_TYPE": "Preemergence herbicidal rating TRZAWR", "RESULT": 2.0}
